Assay: NCI Yeast Anticancer Drug Screen. Data for the mlh1 rad18 strain (AID 175)
Details: S. cerevisiae mlh1 rad18 strain growth inhibition; at 5.0 µM (retest, dose inferred, filed as 0.5); stronger effect = higher value
This is part of a sample that, as a whole, favours compounds with a hit. Of some 79,000 tested, about 15% had one in any assay.
In this section we review reported growth inhibition values for a set of compounds.

# compound, growth inhibition [%]
data = [
    ("CCCCCCCC/C=C\\CCCCCCCC(=O)O (tested in a mixture with another compound)", 0),
    ("CC(C)C1=CC23CCC4C(C)(C(=O)O)CCCC4(C)C2CC1CC3C#N (stereo unspecified)", 13),
    ("CC(C)c1ccc(O)c(O)c(=O)c1", 41),
    ("CCCC(CC)c1cc(O)c(O)cc1C(CC)CCC (stereo unspecified)", 6),
    ("CCOC(=O)Cc1csc(/N=C\\c2c(O)c3ccccc3oc2=O)n1", 24),
    ("O=[N+]([O-])c1ccc(SC(=S)N2CCCCC2)c([N+](=O)[O-])c1", 21),
    ("CCc1[nH]c2ccccc2c1N1C(=O)CC2(CCN(Cc3ccccc3)CC2)CC1=O", -6),
    ("O=C1c2cccc(S(=O)(=O)O)c2C(=O)c2cccc([N+](=O)[O-])c21", 6),
    ("ClC/C=C/c1ccccc1", 3),
    ("N#CSc1ccc2nc(NCO)sc2c1", 45),
    ("O=C1c2ccccc2C(=O)c2c1ccc(C(=O)O)c2-c1ccc2ccccc2c1", 8),
]
